From: patent US20260373266A1

Listed next: entries and their corresponding Kd.
EXPERIMENTAL TARGET: DCAF1 WD40 domain (residues 1077-1390) (Homo sapiens)
Construct: DCAF1 WD40 domain (residues 1077-1390)
Sequence (Q9Y4B6 1077-1390): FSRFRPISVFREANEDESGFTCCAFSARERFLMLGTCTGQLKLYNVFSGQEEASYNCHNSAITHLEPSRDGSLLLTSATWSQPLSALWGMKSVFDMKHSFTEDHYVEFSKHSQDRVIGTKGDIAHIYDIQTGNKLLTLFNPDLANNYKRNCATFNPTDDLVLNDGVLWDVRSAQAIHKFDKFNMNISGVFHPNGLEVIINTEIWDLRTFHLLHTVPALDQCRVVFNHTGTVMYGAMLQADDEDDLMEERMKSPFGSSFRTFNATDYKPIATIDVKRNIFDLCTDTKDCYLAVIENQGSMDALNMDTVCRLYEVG
MEASUREMENT PROTOCOL: DCAF1 binding assay by SPR (Biacore 8K+), DCAF1-3 KD
CONDITION SET: 25 °C, read-out: DCAF1-3 SPR (KD)

Previously resolved entries follow.
NC(=O)C[C@H](NC(=O)c1[nH]ccc1-c1ccccc1F)c1cccc(Cl)c1 [I-114] = 10 to 100 µM
NC(=O)C[C@H](NC(=O)c1c[nH]c(C(=O)c2ccccc2)c1-c1c(F)cc(Cl)cc1F)c1cccc(Cl)c1 [I-946] = < 10 µM
NC(=O)C[C@H](NC(=O)c1cn[nH]c1-c1ccccc1F)c1ccccc1O [I-339] = > 200 µM
c1ccc2c(N3CCC[C@@H](Nc4cc(N5CCOCC5)ccn4)C3)n[nH]c2c1 [I-111] = > 200 µM

Quick note, Kd for Cc1cccc(F)c1-c1[nH]ncc1C(=O)N[C@@H](CC(N)=O)c1cc(F)cc(Cl)c1 [I-748] landed at 10 to 100 µM

Cc1sc2c(c1C)C(c1ccc(Cl)cc1)=N[C@@H](CC(=O)NCCOCCOCCOCCOCCn1cc(C(=O)N[C@@H](CC(N)=O)c3cccc(Cl)c3)c(-c3ccccc3F)n1)c1nnc(C)n1-2 [I-490] has a reported Kd of 10 to 100 µM
